# Read-out: E-selectin (Homo sapiens)
# measurementProtocol: BSK_LPS_Eselectin: BioMAP Diversity Plus: LPS Assay for Eselectin Biomarker Activity (AID 2283077)
# reportedConditions: primary human HUVEC with PBMC; actives raise or lower the signal
Calls of active or inactive are those of the source. The calls were made as follows: active = hit-call score of the fitted dose curve at least 0.9, where 1 is the maximum; inactive = score below 0.9.
Outcome codes: 1.0 for active, 0.0 for inactive

chemicalStructure: CS(=O)(=O)OCCCCOS(C)(=O)=O
categoryLabel: 0.0

chemicalStructure: O=C1OC2(c3ccccc31)c1ccc(O)c(Br)c1Oc1c2ccc(O)c1Br
categoryLabel: 1.0

chemicalStructure: c1ccc(CCc2ccccc2)cc1
categoryLabel: 1.0

chemicalStructure: C=C(C)C(=O)OCCOCCOCCOC(=O)C(=C)C
categoryLabel: 0.0

chemicalStructure: CS(=O)(=O)c1ccc(C2=C(c3ccccc3)C(=O)OC2)cc1
categoryLabel: 0.0

chemicalStructure: CC(C)(N=C=O)c1cccc(C(C)(C)N=C=O)c1
categoryLabel: 0.0

###

# measurementProtocol: BSK_3C_Vis: BioMAP Diversity Plus: 3C Assay for Morphology Visualization (AID 2283025);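 also: fitted both ways so gain or loss versus DMSO counts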
# reportedConditions: primary human endothelial cells (HUVEC)
Active and inactive are the calls of the source. The calls were made as follows: active = hit-call score of the fitted dose curve at least 0.9, where 1 is the maximum; inactive = score below 0.9.
Labels: True (active), False (inactive)

molecule: CN(C)C(=S)SC(=S)N(C)C
categoryLabel: True
//
molecule: C=C(C)C(=O)OCC(CC)(COC(=O)C(=C)C)COC(=O)C(=C)C
categoryLabel: False
//
molecule: CCC(C)c1cc([N+](=O)[O-])cc([N+](=O)[O-])c1OC(=O)OC(C)C (stereo not given)
categoryLabel: True
//
molecule: CN(C)C(=O)Nc1ccc(Oc2ccc(Cl)cc2)cc1
categoryLabel: False
//
molecule: COc1cc(Cl)c(OC)cc1N
categoryLabel: False
//
molecule: c1ccc(CCc2ccccc2)cc1
categoryLabel: True
//
molecule: CC(C=O)Cc1ccc(C(C)(C)C)cc1 (stereo not given)
categoryLabel: True
//
molecule: CSCCC=O
categoryLabel: False
//
molecule: CC(=O)Nc1ccc(C(=O)CCl)cc1
categoryLabel: True
//
molecule: C1=CC2C3C=CC(C3)C2C1 (stereo not given)
categoryLabel: False
//
molecule: CS(=O)(=O)c1ccc(C2=C(c3ccccc3)C(=O)OC2)cc1
categoryLabel: False
//
molecule: CCCCOC(=O)CCCCCCCC(=O)OCCCC
categoryLabel: False
//
molecule: CCN(CC)C(=O)N(CC)CC
categoryLabel: False
//
molecule: CC(=O)c1c(C)c([N+](=O)[O-])c(C(C)(C)C)c([N+](=O)[O-])c1C
categoryLabel: False
//
molecule: c1ccc2cc(Nc3ccc(Nc4ccc5ccccc5c4)cc3)ccc2c1
categoryLabel: True

###

# measurementProtocol: CCTE_Harrill_HTTr_CellCount_MCF7: CCTE's Cell Proliferation Assessment for the High-Throughput Transcriptomics (HTTr) Platform, Harrill Lab (AID 2284012);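 also: count of Hoechst-stained nuclei per well by high-content imaging in MCF-7 cells; cells exposed to compound for six hours; intended direction is loss of nuclei count meaning fewer cells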
Results filed as inconclusive are left out. Active and inactive are the calls of the source. The calls were made as follows: active = hit-call score of the fitted dose curve at least 0.9, where 1 is the maximum; inconclusive = response in the unintended direction; inactive = score below 0.9.
quantityName: outcome

compound: O=C(c1ccccc1)C(O)c1ccccc1 (configuration not stated)
resultValue: inactive
//
compound: N[C@@H](Cc1cc(I)c(Oc2cc(I)c(O)c(I)c2)c(I)c1)C(=O)O
resultValue: inactive
//
compound: CCCCCCOC(=O)CCC
resultValue: inactive
//
compound: c1ccc2[nH]cnc2c1
resultValue: inactive
//
compound: CCc1ccc(O)cc1
resultValue: inactive
//
compound: CN(C)CCOC(C)(c1ccccc1)c1ccccn1 (configuration not stated)
resultValue: inactive
//
compound: Clc1ccc(C(c2ccccc2Cl)C(Cl)Cl)cc1 (configuration not stated)
resultValue: inactive
